The reported numbers originate from paper PMC10786891.

- study_target: T1, EsCas13d, nuclease-dead (Eubacterium siraeum, UniProt B0MS50, R295A;H300A;R849A;H854A)
- T1 sequence: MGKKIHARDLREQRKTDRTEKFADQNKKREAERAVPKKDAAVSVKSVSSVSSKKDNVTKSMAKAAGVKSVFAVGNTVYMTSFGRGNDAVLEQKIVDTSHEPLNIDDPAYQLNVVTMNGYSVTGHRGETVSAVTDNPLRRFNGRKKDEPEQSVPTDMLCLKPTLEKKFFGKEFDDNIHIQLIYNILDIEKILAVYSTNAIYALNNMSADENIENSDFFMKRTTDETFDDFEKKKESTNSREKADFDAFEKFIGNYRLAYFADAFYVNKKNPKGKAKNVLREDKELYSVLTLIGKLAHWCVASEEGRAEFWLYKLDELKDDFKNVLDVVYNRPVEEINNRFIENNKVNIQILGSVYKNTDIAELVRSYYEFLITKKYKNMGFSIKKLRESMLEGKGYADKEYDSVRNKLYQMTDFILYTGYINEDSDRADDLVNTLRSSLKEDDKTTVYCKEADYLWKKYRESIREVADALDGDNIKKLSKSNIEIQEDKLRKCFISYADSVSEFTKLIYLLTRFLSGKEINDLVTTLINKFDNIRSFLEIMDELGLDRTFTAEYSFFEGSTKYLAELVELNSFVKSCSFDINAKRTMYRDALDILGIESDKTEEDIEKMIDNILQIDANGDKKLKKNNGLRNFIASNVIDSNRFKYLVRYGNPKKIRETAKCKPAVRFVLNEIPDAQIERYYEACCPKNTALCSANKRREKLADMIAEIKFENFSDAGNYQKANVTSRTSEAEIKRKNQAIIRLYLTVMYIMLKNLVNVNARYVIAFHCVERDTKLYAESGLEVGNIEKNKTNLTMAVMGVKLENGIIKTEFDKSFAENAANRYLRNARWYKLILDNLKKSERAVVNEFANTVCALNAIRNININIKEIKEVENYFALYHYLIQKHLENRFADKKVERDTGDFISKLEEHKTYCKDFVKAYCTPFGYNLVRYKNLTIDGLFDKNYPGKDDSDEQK
- assay_info: crRNA (strand 1, pre-loaded); Mg2+; 40 mM Tris-HCl pH 7.5, 150 mM NaCl, 6 mM MgCl2, 1 mM DTT, 0.1% Tween-20, 0.2 mg/ml BSA; 25 C; 10 min per concentration, then washed
- assay_setup: tags: His6-TwinStrep-SUMO cleaved; N-terminal SNAP kept (SNAP-Surface 488); label: 3' end held by stalled T7 RNA polymerase
pKd: −log10 of the molar value.

binder	pKd
target 2 MT 5'PFS ACC 3'PFS UCC (mixed) RNA 1: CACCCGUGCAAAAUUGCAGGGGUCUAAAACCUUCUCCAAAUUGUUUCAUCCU RNA 2: GGGAAUGGAUCCACAUCUACGAAUUCACCAGGAUGAAACAAUUUGGAGAAGUCCAGAUCGGAAGAGCACACGU	8.26
target 1 insU 3' of 22,insU 3' of 7 (mixed) RNA 1: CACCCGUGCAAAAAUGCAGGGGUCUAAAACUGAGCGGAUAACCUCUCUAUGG RNA 2: GGGAAUGGAUCCACAUCUACGAAUUCGUACUCAUAGAGAGGUUAUCUCGCUCACCGAGAUCGGAAGAGCACACGU	7.37
target 3 insA 3' of 2,insA 3' of 2 (mixed) RNA 1: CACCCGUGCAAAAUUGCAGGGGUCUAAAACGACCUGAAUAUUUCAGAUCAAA RNA 2: GGGAAUGGAUCCACAUCUACGAAUUCGUUUUUGAUCUGAAAUAUUCAGGUAACUGCAGAUCGGAAGAGCACACGU	7.52
target 2 MT 5'PFS GGU 3'PFS ACU (mixed) RNA 1: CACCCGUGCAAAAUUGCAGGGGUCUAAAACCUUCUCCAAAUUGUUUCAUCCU RNA 2: GGGAAUGGAUCCACAUCUACGAAUUCGGUAGGAUGAAACAAUUUGGAGAAGACUAGAUCGGAAGAGCACACGU	7.75
target 1 G12U,A14G (mixed) RNA 1: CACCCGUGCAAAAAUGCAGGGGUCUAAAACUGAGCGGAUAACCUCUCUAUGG RNA 2: GGGAAUGGAUCCACAUCUACGAAUUCGUACCAUAGAGGGUUUAUCCGCUCACCGAGAUCGGAAGAGCACACGU	7.49
target 1 G5C,G15A (mixed) RNA 1: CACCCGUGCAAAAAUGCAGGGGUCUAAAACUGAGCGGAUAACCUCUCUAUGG RNA 2: GGGAAUGGAUCCACAUCUACGAAUUCGUACCAUAGAAAGGUUAUCCCCUCACCGAGAUCGGAAGAGCACACGU	7.70
target 1 U11A,G12C (mixed) RNA 1: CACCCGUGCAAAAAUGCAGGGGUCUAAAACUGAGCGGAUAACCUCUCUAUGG RNA 2: GGGAAUGGAUCCACAUCUACGAAUUCGUACCAUAGAGAGCAUAUCCGCUCACCGAGAUCGGAAGAGCACACGU	8.12
target 1 insA 3' of 21,insU 3' of 1 (mixed) RNA 1: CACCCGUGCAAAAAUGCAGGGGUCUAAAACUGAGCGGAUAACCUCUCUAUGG RNA 2: GGGAAUGGAUCCACAUCUACGAAUUCGUACCAAUAGAGAGGUUAUCCGCUCAUCCGAGAUCGGAAGAGCACACGU	7.73
